assay_system: ZFP SBS#263 (synthetic, UniProt P08047)
Sequence (P08047 other isoform, or with tags, fused parts or gaps): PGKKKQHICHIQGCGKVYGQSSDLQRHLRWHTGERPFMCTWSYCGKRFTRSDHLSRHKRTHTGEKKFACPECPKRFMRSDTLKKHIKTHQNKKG
assay_summary: EMSA
setup_conditions: tags: MBP fusion
quantity_kind: pKd
A value of pKd is the negative decimal logarithm of a concentration given in moles per litre.

Any idea what its pKd is? The binder is GCGGGGGCT (dsDNA) DNA 1: GCGGGGGCT DNA 2: AGCCCCCGC
9.00
